Source: patent US20240208961A1

Test method notes: Pharmacokinetic studies of certain compounds in female Balb/c mice (Example 5)
Type: in vivo
Conditions used: mouse, plasma, I-3 IV 1 mg/kg
Measured attribute: AUC(0-t) (ng·h/mL)
Expressed in ng·h/mL, but write only the number.

Query: Indicate its recorded AUC(0-t); the compound in question is `CC(C)Cc1sc(Nc2ncc(-c3cccs3)cc2C(=O)O)nc1C1CCCCC1`
Result: 831

====

Test method notes: Pharmacokinetic study of I-11 in female BALB/c mice (Example 4)
Format: in vivo, Balb/c mouse
Conditions used: female, BALB/c, mouse, plasma, po, 50 mg/kg, PO 50 mg/kg, 8 hr, read-out: Plasma concentration Mean
Experimental: Pharmacokinetic Study in Female BALB/c Mice: Balb/c mouse, 17-19 g, 8-10 weeks, female, N=27, purchased from JH Laboratory Animal Co. LTD Fasted overnight and fed at 4 hr post dosing. Animals dosed with sampling at 0.083, 0.25, 0.5, 1, 2, 4, 8, 24 hr post dose. 8 time points. Semi-serial bleeding for plasma only. The animals were restrained manually at the designated time points. Approx. […] Plasma samples were analyzed for I-11 using LC-MS using a calibration curve of known concentrations. […]
Measured attribute: concentration at 8 hr

Query: Return concentration at 8 hr for the following compound: CC(C)Cc1sc(Nc2ncc(-c3cccs3)cc2C(=O)O)nc1C(C)(C)C [Compound I-11]
Result: 314 ng/mL
